For each record, write down the corresponding cell viability.
- Tested on: MOLM1 and UCSD/AML1 (averaged)
- Test Details: cell viability relative to DMSO control (POC); higher = less growth inhibition
- Experimental Conditions: 1 µM; 72 h
The campaign covered roughly 3,000 compounds. About 45 (2%) showed an effect of 50% or more. The full list was thinned out, with strong results kept by preference.
One number for each entry, in %.

Completed entries (count: 4):
| Compound | cell viability, % |
| --- | --- |
| COc1cc(C(=O)NC2Cc3ccccc3NC2=O)cc(OC)c1OC (configuration not stated) | 109 |
| CCOC(=O)[C@H]1CCC(=O)N1 | 17.6 |
| Cc1ccc2oc(-c3ccc(Cl)cc3)cc(=O)c2c1 | 85.9 |
| O=c1ccoc2ccccc12 | 93.1 |

Provide each entry's cell viability from the list below.
1. COc1cc(OC)c(C(=O)/C=C/c2ccccc2)c(OC)c1
2. O=c1cc(C(Cl)(Cl)Cl)oc2ccc(Cl)cc12
3. O=C(Cn1c(=O)cc(C(=O)N2CCc3ccccc3C2)c2ccccc21)Nc1ccc(Cl)cc1
4. CCOC(=O)c1c(C)n(-c2ccccc2)c2cc(Br)c(OC)cc12
5. O=C(/C=C/c1ccccc1)c1ccc(O)cc1
6. Cc1cccc(NC(=O)CSc2nc3c(=O)[nH]cnc3n2C)c1C
7. COc1ccc(C(=O)/C=C2\C(=O)Nc3ccccc32)cc1OC

1. 33
2. 7.16
3. 105
4. 110
5. 2.68
6. 95.1
7. 52.3

----------
- Tested on: MOLM1 and UCSD/AML1 (averaged)
- Test Details: cell viability relative to DMSO control (POC); higher = less growth inhibition
- Experimental Conditions: 1 µM; 72 h
Hit rate of the full screen: of about 3,000 compounds, about 45 (2%) showed an effect of 50% or more. This excerpt belongs to a sample that is enriched for strong results.
Readout Label: cell viability (%)
Numbers only, in %.

| Molecule | System Under Test | Readout Label | Measured Number |
| --- | --- | --- | --- |
| COc1ccc(C(=O)N2CCCc3cccc(OC)c32)cc1OC | MOLM1 and UCSD/AML1 (averaged) | cell viability | 90.1 |
| COc1ccc(NC(=O)CSc2nc3c(=O)[nH]cnc3n2-c2ccc(C)cc2)c(OC)c1 | MOLM1 and UCSD/AML1 (averaged) | cell viability | 102 |
| COc1cc(C(=O)Nc2ccc(C(=O)c3cccs3)cc2)cc(OC)c1OC | MOLM1 and UCSD/AML1 (averaged) | cell viability | 99.7 |
| COc1ccc(C(=O)/C=C/c2ccccc2)c(O)c1 | MOLM1 and UCSD/AML1 (averaged) | cell viability | 101 |
| CCOC(=O)c1ccc2[nH]c(-c3ccccc3)cc(=O)c2c1 | MOLM1 and UCSD/AML1 (averaged) | cell viability | 7.45 |
| COc1cc(C(=O)Nc2ccc3ncn(C)c3c2)cc(OC)c1OC | MOLM1 and UCSD/AML1 (averaged) | cell viability | 93.9 |
| Cc1ccc(-n2c(SCc3ccccc3F)nc3c(=O)[nH]cnc32)cc1 | MOLM1 and UCSD/AML1 (averaged) | cell viability | 95.2 |
| COc1cc(C(=O)Nc2ccccc2NC(=O)c2cc(OC)c(OC)c(OC)c2)cc(OC)c1OC | MOLM1 and UCSD/AML1 (averaged) | cell viability | 95.9 |
| COc1cc(C(=O)Nc2ccc3c(c2)ncn3C)cc(OC)c1OC | MOLM1 and UCSD/AML1 (averaged) | cell viability | 19 |
| CC(C)COc1ccc(C(=O)N/C(=C\c2ccccc2)C(=O)NCCNC(=O)/C(=C\c2ccccc2)NC(=O)c2ccc(OCC(C)C)cc2)cc1 | MOLM1 and UCSD/AML1 (averaged) | cell viability | 103 |

Provide each entry's cell viability from the list below.
1. O=C(/C=C/c1ccc([N+](=O)[O-])cc1)NCc1ccc2c(c1)OCO2
2. COc1ccc(C2c3[nH]c4ccccc4c3CCN2C(=O)/C=C/c2cc(OC)c(OC)c(OC)c2)cc1 (configuration not stated)
3. CCCCc1ccc(NC(=O)c2cc(OC)c(OC)c(OC)c2)cc1
4. COc1ccccc1NC(=O)c1ccc2c(c1)OCO2
5. COc1ccc(C(=O)Nc2ccc3ncn(C)c3c2)cc1OC
6. COC(=O)c1cc(O)cc(O)c1
7. COC(=O)c1ccc(NC(=O)c2cc(OC)c(OC)c(OC)c2)cc1

[97, 32.6, 49.6, 94.7, 101, 104, 23.1]

----------
For each record, write down the corresponding cell viability.
- System: MOLM1 and UCSD/AML1 (averaged)
- Test Details: cell viability relative to DMSO control (POC); higher = less growth inhibition
- Experimental Conditions: 1 µM; 72 h
In all, about 3,000 compounds went through this assay and about 45 (2%) showed an effect of 50% or more. The entries come from a sample that favours strong results as a whole.
Give bare numbers, in %.

Completed entries (count: 6):
| Molecule | System Under Test | Readout Label | Measured Number |
| --- | --- | --- | --- |
| O=C(CSc1nc2ccccc2c(=O)[nH]1)NCc1ccccc1Cl | MOLM1 and UCSD/AML1 (averaged) | cell viability | 107 |
| CCOC(=O)N1CCc2[nH]c3ccc(C)cc3c2C1 | MOLM1 and UCSD/AML1 (averaged) | cell viability | 42.4 |
| CCOC(=O)N1CCc2[nH]c3ccc(Cl)cc3c2C1 | MOLM1 and UCSD/AML1 (averaged) | cell viability | 89.6 |
| CC(=O)c1nc2ccccc2n1CC(=O)NCCOc1ccccc1 | MOLM1 and UCSD/AML1 (averaged) | cell viability | 98.2 |
| COc1cc(N(C(C)=O)C2OC(COC(C)=O)C(OC(C)=O)C(OC(C)=O)C2OC(C)=O)c(OC)c2c(C)cc(C)nc12 (configuration not stated) | MOLM1 and UCSD/AML1 (averaged) | cell viability | 98.5 |
| CCc1cccc(C)c1NC(=O)CN1CCN(Cc2cc(=O)oc3cc(C)ccc23)CC1 | MOLM1 and UCSD/AML1 (averaged) | cell viability | 95.4 |

Provide each entry's cell viability from the list below.
1. CC1(C(=O)O)CCC2(C)CCC3(C)C(=CC(=O)C4C5(C)CCC(OC6OC(C(=O)O)C(O)C(O)C6OC6OC(C(=O)O)C(O)C(O)C6O)CC5CCC43C)C2C1.CC1(C(=O)O)CCC2(C)CCC3(C)C(=CC(=O)C4C5(C)CCC(OC6OC(C(=O)O)C(O)C(O)C6OC6OC(C(=O)O)C(O)C(O)C6O)CC5CCC43C)C2C1.CC1(C(=O)O)CCC2(C)CCC3(C)C(=CC(=O)C4C5(C)CCC(OC6OC(C(=O)O)C(O)C(O)C6OC6OC(C(=O)O)C(O)C(O)C6O)CC5CCC43C)C2C1.[Fe] (configuration not stated)
2. CC1(C)C2CCC1(CS(=O)(=O)Nc1ccncc1)C(=O)C2 (configuration not stated)
3. COc1cc(C2C(C#N)=C(N)Oc3n[nH]c(-c4ccccc4)c32)cc(OC)c1OC (configuration not stated)

1. 91.5
2. 106
3. 100

----------
For each record, write down the corresponding cell viability.
- Tested on: MOLM1 and UCSD/AML1 (averaged)
- Test Details: cell viability relative to DMSO control (POC); higher = less growth inhibition
- Experimental Conditions: 1 µM; 72 h
In all, about 3,000 compounds went through this assay and about 45 (2%) showed an effect of 50% or more. For the sample, strong results were picked, then their nearest neighbours and some compounds at random.

| Compound | cell viability |
| --- | --- |
| COc1cc(OC)cc(C(=O)Nc2cc(OC)cc(S(=O)(=O)c3ccc(Cl)cc3)c2)c1 | 92.8% |
| O=C(N/N=C/c1cc(N=Nc2cccc(C(F)(F)F)c2)ccc1O)c1ccc2c(c1)OCO2 | 21.3% |
| COc1ccc(-c2cc(C(F)(F)F)nc(SC3CC(O)C4OCC3O4)n2)cc1OC (stereo unspecified) | 98.4% |
| O=C(CCNc1cccc(Cl)c1)c1cc2ccccc2oc1=O | 115% |
| C=C(C)C1CCC2(C)CCC3(C)C(CCC4C5(C)CCC(OC(C)=O)C(C)(C)C5CCC43C)C12 (stereo unspecified) | 102% |

Provide each entry's cell viability from the list below.
1. CCc1ccc2oc(=O)cc(CN3CCN(Cc4nc(-c5ccc(C)cc5)oc4C)CC3)c2c1
2. O=C(OCC1CCCN2CCCCC12)c1ccccc1O (stereo unspecified)
3. O=C(/C=C/c1ccc(NC(=O)c2cc(NC(=O)C(c3ccccc3)c3ccccc3)cc(NC(=O)C(c3ccccc3)c3ccccc3)c2)cc1)c1ccccc1
4. COc1ccc(-c2cc(-c3ccc4c(c3)OCO4)[nH]c(=O)c2C#N)cc1
5. O=C(N/N=C\c1cc(Br)cc(Br)c1OC(=O)c1cccc(F)c1)c1ccc2c(c1)OCO2
6. CCOc1ccccc1C1CCCC2(O)CCN(CC(=O)NCc3ccco3)CC12 (stereo unspecified)
7. Nc1nc2ncc(CNc3ccc(C(=O)N[C@H](CCC(=O)O)C(=O)O)cc3)nc2c(=O)[nH]1

1. 96.3%
2. 96.9%
3. 94.6%
4. 97.1%
5. 64.1%
6. 99.5%
7. 102%

Provide each entry's cell viability from the list below.
1. COc1ccc(OC)c2c(C)cc(SCC(=O)c3ccc4c(c3)OCCO4)nc12
2. C=CCN(C(=O)CSc1nc2c(=O)[nH]cnc2n1-c1ccccc1)c1ccccc1
3. CC(=O)/C=C(\C)NC(C)C(=O)O (stereo unspecified)
4. CCOc1ccccc1C(=O)NCCc1c(C)[nH]c2ccccc12
5. CCn1c2ccccc2c2cc(/C=N/NC(=O)c3cc(OC)c(OC)c(OC)c3)ccc21
6. COc1cc(C(=O)NC(C(=O)O)C(C)C)cc(OC)c1OC (stereo unspecified)

1. 101%
2. 98%
3. 102%
4. 105%
5. 10.7%
6. 103%

Provide each entry's cell viability from the list below.
1. COc1cc(/C=N/NC(=O)CCC(=O)Nc2ccccc2C)cc(OC)c1OC
2. CCN(CC)c1ccc2cc(-c3ccc(OC)cc3)c(=O)oc2c1
3. Cc1[nH]c2ccc(Br)cc2c1CCNC(=O)c1cccs1

1. 91.6%
2. 88.7%
3. 100%
